Test system: human Somatostatin 4 receptor (SSTR4) (Homo sapiens (Human), UniProt P31391)
Sequence (P31391 whole entry): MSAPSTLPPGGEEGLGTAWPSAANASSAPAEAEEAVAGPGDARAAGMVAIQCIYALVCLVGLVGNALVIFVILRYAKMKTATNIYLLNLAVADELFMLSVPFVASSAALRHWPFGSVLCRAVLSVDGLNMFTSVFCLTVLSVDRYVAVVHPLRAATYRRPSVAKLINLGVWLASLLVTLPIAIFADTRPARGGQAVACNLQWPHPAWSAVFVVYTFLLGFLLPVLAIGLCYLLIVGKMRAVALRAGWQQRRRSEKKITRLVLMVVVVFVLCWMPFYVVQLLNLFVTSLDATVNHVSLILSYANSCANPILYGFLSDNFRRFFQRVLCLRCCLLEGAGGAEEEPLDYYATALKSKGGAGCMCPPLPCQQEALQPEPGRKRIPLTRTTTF
Method notes: cAMP assay with human somatostatin 4 receptor (hSSTR4 expressing H4 cells)
Assay type: cell-based
Experimental setup: cAMP assay, read-out: SSTR4 agonism EC50
Experimental readout: pEC50
One number for each entry, as −log10 of the molar value.

{"columns": ["Item smiles", "Observed result"],
 "data": [
  ["CC(C)(NC(=O)[C@H]1[C@@H]2CNC[C@@H]21)c1ccn2ccnc2c1", 6.84],
  ["Cc1csc(C(C)(C)NC(=O)[C@H]2[C@@H]3CNC[C@@H]32)n1", 6.55],
  ["CC(C)(NC(=O)[C@H]1[C@@H]2CNC[C@@H]21)c1ncc2ccc(F)cn12", 8.19]
]}

Return reported pEC50 values for all items listed beneath this line.
1. CC(C)(NC(=O)[C@H]1[C@@H]2CNC[C@@H]21)c1nn(CC(F)(F)F)c2ccccc12
2. CC(C)(NC(=O)[C@H]1[C@@H]2CNC[C@@H]21)c1cnc2cccnn12
3. CC(C)(NC(=O)[C@H]1[C@@H]2CNC[C@@H]21)c1ncc2n1CCCC2
4. Cc1nc(C(C)(C)NC(=O)[C@H]2[C@@H]3CNC[C@@H]32)c2cccc(F)c2n1
5. CC(C)(NC(=O)[C@H]1[C@@H]2CNC[C@@H]21)c1nc(C(F)(F)F)c2ccccn12.Cl

1. 8.04
2. 6.62
3. 7.38
4. 7.43
5. 8.72

====

Test system: human SSTR1 (Homo sapiens (Human))
Sequence (P30872 whole entry): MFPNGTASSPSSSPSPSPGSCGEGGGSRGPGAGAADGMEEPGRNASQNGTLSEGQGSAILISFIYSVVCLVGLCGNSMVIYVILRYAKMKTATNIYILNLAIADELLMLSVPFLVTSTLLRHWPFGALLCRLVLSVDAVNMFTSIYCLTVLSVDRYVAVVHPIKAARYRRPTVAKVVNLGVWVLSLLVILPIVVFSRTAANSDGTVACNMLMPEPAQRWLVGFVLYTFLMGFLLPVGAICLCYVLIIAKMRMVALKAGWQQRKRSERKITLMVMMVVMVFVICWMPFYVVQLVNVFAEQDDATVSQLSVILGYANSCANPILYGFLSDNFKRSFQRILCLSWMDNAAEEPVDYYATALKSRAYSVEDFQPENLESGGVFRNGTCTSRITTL
Method notes: Radioligand binding assay, CHO cell membranes expressing recombinant human SSTR1
Experimental readout: pKi
One number for each entry, as −log10 of the molar value.

// below: answered compounds
{"columns": ["Item smiles", "Observed result"],
 "data": [
  ["Cn1nc(C(C)(C)NC(=O)[C@H]2[C@@H]3CNC[C@@H]32)c2ccccc21", 5.34],
  ["Cc1cccc2c(C(C)(C)NC(=O)[C@H]3[C@@H]4CNC[C@@H]43)n[nH]c12", 5.15],
  ["Cc1nc(C(C)(C)NC(=O)[C@H]2[C@@H]3CNC[C@@H]32)c2cccc(C)c2n1", 5.18],
  ["Cc1cccc2c(C(C)(C)NC(=O)[C@H]3[C@@H]4CNC[C@@H]43)nn(C)c12", 5.37],
  ["Cc1nc(C(C)(C)NC(=O)[C@H]2[C@@H]3CNC[C@@H]32)c2ccccc2n1", 5.13],
  ["CC(C)(NC(=O)[C@H]1[C@@H]2CNC[C@@H]21)c1nccc2ccccc12.Cl", 5.55],
  ["Cc1cc2ccccc2c(C(C)(C)NC(=O)[C@H]2[C@@H]3CNC[C@@H]32)n1.Cl", 6.07],
  ["Cc1ncc(C(C)(C)NC(=O)[C@H]2[C@@H]3CNC[C@@H]32)c2ccccc12", 6.29],
  ["Cc1cccn2c(C(C)(C)NC(=O)[C@H]3[C@@H]4CNC[C@@H]43)nc(C3CC3)c12", 5.96],
  ["Cc1cc2cccnc2c(C(C)(C)NC(=O)[C@H]2[C@@H]3CNC[C@@H]32)n1", 5.18]
]}

Each compound below has a reported value. Please supply its pKi.
1. Cc1cccn2c(C(C)(C)NC(=O)[C@H]3[C@@H]4CNC[C@@H]43)ncc12.Cl
2. CC(C)(COc1nccc2ccccc12)NC(=O)[C@H]1[C@@H]2CNC[C@@H]21

[5.18, 5.46]
